Source of measurements: patent US20240360228A1

# MFI annotations
# targetSystem: T1, human chemokine (C-C motif) receptor 8 (CCR8) (human, UniProt P51685 1-355)
# T1 construct: On human peripheral blood lymphocytes / PBMC (native) or on human CCR8 GFP-transfected Ba/F3 cells; also called hCCR8; human CCR8
# T1 sequence (P51685 whole entry): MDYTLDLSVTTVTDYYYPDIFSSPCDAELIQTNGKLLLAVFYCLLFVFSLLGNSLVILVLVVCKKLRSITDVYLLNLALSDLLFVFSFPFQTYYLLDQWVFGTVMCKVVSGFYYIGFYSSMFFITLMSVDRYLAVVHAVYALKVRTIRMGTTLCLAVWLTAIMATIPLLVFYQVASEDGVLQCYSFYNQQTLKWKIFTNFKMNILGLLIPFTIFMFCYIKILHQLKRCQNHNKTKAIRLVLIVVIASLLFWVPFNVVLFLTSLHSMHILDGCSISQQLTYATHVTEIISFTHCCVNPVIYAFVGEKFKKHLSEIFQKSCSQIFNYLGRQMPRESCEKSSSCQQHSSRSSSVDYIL
# measurementProtocol: flow cytometry blocking, PBMC CCR8+ CD4+ cells; competitor PE-AB4 (its MFI is read)
Lab note: jot the number down without any unit.

# binder, measuredAttribute, reportedResult
measured = [
    ("AB4 (antibody, V domains shown, Hybridoma monoclonal; also called antibody 4; clone 4) VH: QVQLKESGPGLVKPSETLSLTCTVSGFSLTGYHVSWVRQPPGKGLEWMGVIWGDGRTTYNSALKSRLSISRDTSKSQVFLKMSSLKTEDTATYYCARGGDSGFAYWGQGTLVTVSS VL: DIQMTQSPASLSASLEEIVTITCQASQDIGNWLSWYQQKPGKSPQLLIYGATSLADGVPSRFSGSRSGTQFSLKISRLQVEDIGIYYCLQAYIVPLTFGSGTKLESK", "MFI", 1100),
]

Query: Item AB2 (antibody, V domains shown, Hybridoma monoclonal; also called antibody 2; clone 2) VH: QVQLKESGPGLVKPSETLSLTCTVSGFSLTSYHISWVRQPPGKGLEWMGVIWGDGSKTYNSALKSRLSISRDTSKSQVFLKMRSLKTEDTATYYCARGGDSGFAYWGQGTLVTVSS VL: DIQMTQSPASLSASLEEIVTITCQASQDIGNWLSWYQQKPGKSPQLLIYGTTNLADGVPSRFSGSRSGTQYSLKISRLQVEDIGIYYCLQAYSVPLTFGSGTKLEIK has what recorded MFI?
Response: 572

Query: What MFI value was documented for this binder, AB10 (antibody, V domains shown, Hybridoma monoclonal; also called antibody 10; clone 10) VH: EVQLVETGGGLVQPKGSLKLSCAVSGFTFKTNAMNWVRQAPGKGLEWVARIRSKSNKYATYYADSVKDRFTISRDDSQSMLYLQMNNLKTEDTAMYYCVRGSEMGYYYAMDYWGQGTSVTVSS VL: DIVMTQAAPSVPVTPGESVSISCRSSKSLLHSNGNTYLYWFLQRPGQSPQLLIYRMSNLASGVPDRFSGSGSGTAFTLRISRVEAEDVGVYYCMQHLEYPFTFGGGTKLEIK ?
Response: 969

Query: Requested field: MFI. Item: AB5 (antibody, V domains shown, Hybridoma monoclonal; also called antibody 5; clone 5) VH: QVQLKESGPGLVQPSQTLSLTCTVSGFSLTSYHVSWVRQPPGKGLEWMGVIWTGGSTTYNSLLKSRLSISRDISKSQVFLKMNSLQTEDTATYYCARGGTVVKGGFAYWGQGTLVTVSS VL: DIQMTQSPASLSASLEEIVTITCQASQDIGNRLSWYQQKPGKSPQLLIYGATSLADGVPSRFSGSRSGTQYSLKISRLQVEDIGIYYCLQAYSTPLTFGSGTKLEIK
Response: 729

Query: Find the recorded MFI belonging to AB12 (antibody, V domains shown, Hybridoma monoclonal; also called antibody 12; clone 12) VH: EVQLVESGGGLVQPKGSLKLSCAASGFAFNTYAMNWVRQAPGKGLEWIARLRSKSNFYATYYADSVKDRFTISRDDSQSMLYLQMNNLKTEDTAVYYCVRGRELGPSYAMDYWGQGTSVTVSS VL: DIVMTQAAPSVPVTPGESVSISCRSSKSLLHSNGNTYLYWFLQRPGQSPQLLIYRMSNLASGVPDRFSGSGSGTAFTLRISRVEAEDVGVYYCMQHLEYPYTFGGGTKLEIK and report it.
Response: 1060
